- tested-system: T1, human Trophoblast cell surface antigen 2 (TROP2) (human, UniProt P09758 27-274, limits assumed)
- T1 construct: Analyte in the SPR experiments and immunogen; also called human TROP2
- T1 sequence: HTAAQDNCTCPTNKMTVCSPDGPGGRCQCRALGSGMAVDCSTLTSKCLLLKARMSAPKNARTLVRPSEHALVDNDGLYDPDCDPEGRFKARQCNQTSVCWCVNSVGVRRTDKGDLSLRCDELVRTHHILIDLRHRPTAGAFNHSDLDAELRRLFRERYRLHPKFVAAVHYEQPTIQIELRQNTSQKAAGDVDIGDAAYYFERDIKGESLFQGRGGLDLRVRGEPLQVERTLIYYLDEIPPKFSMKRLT
- assay-procedure: SPR affinity ranking, human TROP2
Binary call on koff: met from 0.0001 s⁻¹ upward, not met beneath that.

Does HC1/LC5 (antibody, human IgG1, kappa, V domains shown, Humanized anti-TROP2 antibody; also called DP002-HC1LC5) VH: QVQLVQSGAEVKKPGASVKVSCKASGYTFTDYSINWVRQAPGQGLEWMGVISTYYGDASYNQKFKGRVTMTTDTSTSTAYMELRSLRSDDTAVYYCARYGDGYNQFDYWGQGTMVTVSS VL: DIQMTQSPSSLSASVGDRVTITCRVSESVDSYGNNFMHWYQQKPGKAPKLLIYRASNLESGVPSRFSGSGSGTDFTFTISSLQPEDIATYYCQQSYEDPYTFGGGTKLEIKR have a reported koff of at least 0.0001 s⁻¹?
met
